# tested_on: human MCH receptor 1 (MCHR1) (Homo sapiens, UniProt Q99705)
# Construct: expressed in transfected cells; host or cells: CHO cell clone 57 (membrane fraction)
# Sequence (Q99705 whole entry): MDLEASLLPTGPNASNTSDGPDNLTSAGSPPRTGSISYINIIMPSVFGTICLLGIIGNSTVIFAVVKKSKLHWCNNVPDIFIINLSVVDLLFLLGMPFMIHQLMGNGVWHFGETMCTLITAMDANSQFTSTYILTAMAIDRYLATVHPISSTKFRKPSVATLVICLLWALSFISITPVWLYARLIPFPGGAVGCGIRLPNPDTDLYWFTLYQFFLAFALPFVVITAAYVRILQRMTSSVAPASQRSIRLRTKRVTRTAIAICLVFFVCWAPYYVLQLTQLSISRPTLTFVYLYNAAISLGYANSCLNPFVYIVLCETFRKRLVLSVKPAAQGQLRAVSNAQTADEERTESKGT
# test_details: human MCH receptor 1 (MCHR1) competitive binding assay with [125I]-MCH(4-19)
# condition_summary: test compound 0.1 μM, human MCHR1-expressing CHO cell membrane fraction, read-out: Binding inhibition rate % (0.1 μM)
reported_metric: inhibition at 0.1 µM (%)

CCn1c(C2CC2)nc2ccc(-n3ccc(OCc4ccc(Cl)cc4)cc3=O)cc21 [Example 21] | 76
Cn1c([C@@H]2C[C@@H]2C(C)(C)O)nc2ccc(-n3ccc(OCc4csc(Cl)c4)cc3=O)cc21 (racemic) [Example 215] | 92
Cc1c(C2CC2)nc2ccc(-n3ccc(OCc4ccc(Cl)s4)cc3=O)cn12 [Example 139] | 88
Cc1nc2ccc(-n3ccc(OCc4csc(C(F)(F)F)c4)cc3=O)cc2n1C [Example 290] | 77

* * *

# tested_on: human MCH receptor 1 (MCHR1) (Homo sapiens)
# Construct: expressed in transfected cells; host or cells: CHO cell clone 57 (membrane fraction)
# test_details: human MCH receptor 1 (MCHR1) competitive binding assay with [125I]-MCH(4-19)
# condition_summary: test compound 0.1 μM, human MCHR1-expressing CHO cell membrane fraction, read-out: Binding inhibition rate % (0.1 μM)
reported_metric: inhibition at 0.1 µM (%)

Cn1c(C2CC2)nc2ccc(-n3ccc(OCc4cccc(Cl)c4)cc3=O)cc21 | 80
Cn1c(C2CC2)nc2ccc(-n3ccc(OCc4cccc(F)c4)cc3=O)cc21 | 80
Cn1c(C2CC2)nc2ccc(-n3ccc(OCc4ccc(F)c(F)c4)cc3=O)cc21 | 82
Cn1c(C2CC2)nc2ccc(-n3ccc(OCc4coc(Br)c4)cc3=O)cc21 | 80
Cc1c(C2CC2)nc2ccc(-n3ccc(OCc4csc(C(F)F)c4)cc3=O)cn12 | 82

* * *

# tested_on: human MCH receptor 1 (MCHR1) (Homo sapiens)
# Construct: expressed in transfected cells; host or cells: CHO cell clone 57 (membrane fraction)
# test_details: human MCH receptor 1 (MCHR1) competitive binding assay with [125I]-MCH(4-19)
# condition_summary: test compound 0.1 μM, human MCHR1-expressing CHO cell membrane fraction, read-out: Binding inhibition rate % (0.1 μM)
reported_metric: inhibition at 0.1 µM (%)

Use these answered entries as a reference point.
Cc1nc2ccc(-n3ccc(OCc4ccc(Cl)cc4)cc3=O)cc2n1C | 60
Cn1c([C@@H]2C[C@@H]2C(C)(C)F)nc2ccc(-n3ccc(OCc4ccccc4)cc3=O)cc21 (racemic) | 54
CCc1nc2ccc(-n3ccc(OCc4ccc(F)s4)cc3=O)cc2n1C | 52
CCc1nc2ccc(-n3ccc(OCc4ccc(Cl)s4)cc3=O)cc2n1C | 76
CC(=O)c1nc2ccc(-n3ccc(OCc4ccc(Cl)cc4)cc3=O)cc2n1C | 60
Cc1c(C2CC2)nc2ccc(-n3ccc(OCc4ccc(Cl)cc4)nc3=O)cn12 | 79
CC(=O)c1nc2ccc(-n3ccc(OCc4ccc(F)cc4)cc3=O)cc2n1C | 57

(A) Cc1csc(COc2ccn(-c3ccc4nc(C5CC5)n(C)c4c3)c(=O)c2)n1
(B) CCC(=O)c1nc2ccc(-n3ccc(OCc4ccc(Cl)cc4)cc3=O)cc2n1C
(C) Cc1c(C2CC2)nc2ccc(-n3ccc(OCc4csc(Br)c4)cc3=O)cn12
Request: Task field, ranking: reported inhibition at 0.1 µM, descending order. Please write the labels in the order that was asked for.
Result: C, A, B
